Data origin: ChEMBL document CHEMBL1154345

- PROCEDURE_DETAILS: in vitro
- MEASUREMENT_PARAMETERS: human, liver microsomes
- Description: Metabolic stability in human liver microsomes assessed as compound remaining after 60 mins at 1 uM
PROPERTY_NAME: remaining at 1 h, 1 µM (%)

>>> print(df.to_string())
                               given_smiles  units_text  experimental_value
0  CS(=O)(=O)Nc1ccc2c(c1)S(=O)(=O)N=C(C1=C(O)[C@@H]3C4CCC(CC4)[C@@H]3N(Cc3ccc(F)cc3Cl)C1=O)N2           %                 100

(A) COc1cc(CN2C(=O)C(C3=NS(=O)(=O)c4cc(NS(C)(=O)=O)ccc4N3)=C(O)[C@@H]3C4CCC(CC4)[C@@H]32)ccc1F
(B) CS(=O)(=O)Nc1ccc2c(c1)S(=O)(=O)N=C(C1=C(O)[C@@H]3C4CCC(CC4)[C@@H]3N(Cc3ccc(F)c(F)c3F)C1=O)N2
Prompt line: Returns: the argument ( A or B ) having the larger remaining at 1 h, 1 µM. # answer = label of selected item
Response line: B
(B: 100%, A: 67%)

###

- PROCEDURE_DETAILS: in vitro
- MEASUREMENT_PARAMETERS: human, Caco-2
- Description: Apparent permeability from apical side to basolateral side of human Caco-2 cells at 10 uM after 3 hrs
PROPERTY_NAME: Papp A→B at 3 h, 10 µM (×10⁻⁶ cm/s)

(I) CS(=O)(=O)Nc1ccc2c(c1)S(=O)(=O)N=C(C1=C(O)[C@@H]3[C@@H]([C@H]4CC[C@@H]3O4)N(Cc3ccc(F)cc3)C1=O)N2
(II) CS(=O)(=O)Nc1ccc2c(c1)S(=O)(=O)N=C(C1=C(O)[C@@H]3[C@H]4CC[C@H](C4)[C@@H]3N(Cc3ccc(F)c(F)c3)C1=O)N2
Prompt line: I'm curious whether I or II has the smaller Papp A→B at 3 h, 10 µM number. Which is it? # answer = label of selected item
Response line: I
(I: 0.08 ×10⁻⁶ cm/s, II: 1.05 ×10⁻⁶ cm/s)

###

- PROCEDURE_DETAILS: in vitro
- MEASUREMENT_PARAMETERS: human, microsomes
PROPERTY_NAME: remaining at 1 h, 1 µM (%)

>>> print(df.to_string())
                               given_smiles  experimental_value
0  CS(=O)(=O)Nc1ccc2c(c1)S(=O)(=O)N=C(C1=C(O)[C@@H]3[C@@H]4CC[C@@H](C4)[C@@H]3N(Cc3ccc(F)cc3)C1=O)N2                  85
1  COc1cc(CN2C(=O)C(C3=NS(=O)(=O)c4cc(NS(C)(=O)=O)ccc4N3)=C(O)[C@@H]3[C@@H]4CC[C@@H](C4)[C@@H]32)ccc1F                  64
2  COc1cc(CN2C(=O)C(C3=NS(=O)(=O)c4cc(NS(C)(=O)=O)ccc4N3)=C(O)[C@@H]3[C@H]4CC[C@H](C4)[C@@H]32)ccc1F                  66
